Where do these numbers come from? They come from ChEMBL document CHEMBL4118048.

# Test system: Acinetobacter baumannii
# Experimental details: Antibacterial activity against Acinetobacter baumannii ATCC 19606 infected in mouse assessed as reduction in bacterial count in blood at 4 mg/kg, ip measured after 4 hrs
# Assay type: functional, organism-based
# Measurement context: ATCC 19606 = CIP 70.34 = JCM 6841
Active and inactive are the calls of the source. No cut-off for these calls is given here. Where a SMILES comes first, the peptide text is derived from it. Bridges are numbered along the chain shown (N, C = ends). [ ]: non-standard residue; d: D form. The star is where a group is joined. Heptanoyl(6-Me) = CC(C)CCCCC(=O)*; X1 = CC[C@H](C)CCCCC(=O)*; Dab = NCC[C@H](N)C(=O)O
Observable: Activity

>>> recorded_result("CC[C@H](C)CCCCC(=O)N[C@@H](CCN)C(=O)N[C@H](C(=O)N[C@@H](CCN)C(=O)N[C@H]1CCNC(=O)[C@H]([C@@H](C)O)NC(=O)[C@H](CCN)NC(=O)[C@H](CCN)NC(=O)[C@H](CC(C)C)NC(=O)[C@@H](Cc2ccccc2)NC(=O)[C@H](CCN)NC1=O)[C@@H](C)O (X1-[Dab]T[Dab][Dab][Dab][dF]L[Dab][Dab]T; lactam 4-C)")
"Active"
>>> recorded_result("CC[C@H](C)CCCCC(=O)N[C@@H](CCN)C(=O)N[C@H](C(=O)N[C@H](CO)C(=O)N[C@H]1CCNC(=O)[C@H]([C@@H](C)O)NC(=O)[C@H](CCN)NC(=O)[C@H](CCN)NC(=O)[C@H]([C@@H](C)O)NC(=O)[C@@H](CC(C)C)NC(=O)[C@H](CCN)NC1=O)[C@@H](C)O (X1-[Dab]T[dS][Dab][Dab][dL]T[Dab][Dab]T; lactam 4-C)")
"Active"
>>> recorded_result("CC(C)CCCCC(=O)N[C@@H](CCN)C(=O)N[C@H](C(=O)N[C@@H](CCN)C(=O)N[C@H]1CCNC(=O)[C@H]([C@@H](C)O)NC(=O)[C@H](CCN)NC(=O)[C@H](CCN)NC(=O)[C@H](CC(C)C)NC(=O)[C@@H](Cc2ccccc2)NC(=O)[C@H](CCN)NC1=O)[C@@H](C)O [POLYMYXIN B2] ({Heptanoyl(6-Me)}-[Dab]T[Dab][Dab][Dab][dF]L[Dab][Dab]T; lactam 4-C)")
"Active"
>>> recorded_result("CC(C)CCCCC(=O)N[C@@H](CCN)C(=O)N[C@H](C(=O)N[C@H](CO)C(=O)N[C@H]1CCNC(=O)[C@H]([C@@H](C)O)NC(=O)[C@H](CCN)NC(=O)[C@H](CCN)NC(=O)[C@H]([C@@H](C)O)NC(=O)[C@@H](CC(C)C)NC(=O)[C@H](CCN)NC1=O)[C@@H](C)O ({Heptanoyl(6-Me)}-[Dab]T[dS][Dab][Dab][dL]T[Dab][Dab]T; lactam 4-C)")
"Active"
